# Tested on: Colo205
# Protocol text: Cancer cell growth inhibition, Colo205
# Format: cell-based
# Measurement parameters: Homo sapiens, COLO 205; Colorectal, Colo205, cell viability, 72 h
Measurement label: EC50 (µM)
Answers are plain numbers, in µM.

Worked cases, EC50 given:
INSERT INTO results (compound, measurement_label, unit_annotation, observed_result) VALUES
  ('COc1cc(OC)c2c(-c3ccc(O)cc3)cn(CC(=O)c3ccc(O)cc3)c2c1 [Example 6]', 'EC50', 'µM', 16),
  ('O=C(Cn1cc(-c2ccc(O)cc2)c2c(F)cc(F)cc21)c1ccc(O)cc1 [Example 16]', 'EC50', 'µM', 31);

stdin: Answer with the recorded EC50 for the compound listed here: COc1cc(OC)c2c(-c3ccc(O)c(O)c3O)cn(CC(=O)c3ccc(O)c(O)c3O)c2c1 [Example 11]
stdout: 24

Every entry's value here was drawn from patent US20150336889A1.
